For each record, write down the corresponding growth.
Tested on: OVCAR-4 ovarian
Test: NCI-60 one-dose screen, 48 h (100 = growth as untreated, 0 = no growth, -100 = all killed)
Conditions: 10 µM unless noted
Procedure: Growth inhibition of the OVCAR-4 human tumor cell line is measured as a screen for anti-cancer activity. Cells are grown in 96 well plates and exposed to the test compound for 48 hours. Compounds are tested at a single concentration, which is 10^-5 M for most compounds. The reported endpoint is percent growth (GI% or GIPRCNT), where numbers from 0 - 100% represent growth inhibition, and numbers from -100% - 0 represent cell death. For example, a value of 40 represents 60% growth inhibition. […]
This is part of a sample that, as a whole, favours compounds with a hit. Of some 83,000 tested, about 20% had one in any assay. Calls of active or inactive are those of the source. How the source made its calls: active means growth percent below 10; inactive means the rest.

q: What does the record list as growth for `C=CCn1c(SCC(=O)c2ccccc2)nnc1-c1c[nH]c2ccccc12` ?
a: 97.5% (inactive)

q: What does the record list as growth for `COc1ccc(/C=N/Nc2ccnc3cc(Cl)ccc23)cc1Cl` ?
a: -60.7% (active)

q: What does the record list as growth for COC(=O)C(C)NS(=O)(=O)/N=C1\NC(=O)NC1=C(Cl)Cl (stereo not given) ?
a: 113% (inactive)

q: What does the record list as growth for `Cn1cc(-c2cc(N)n3nc(-c4cn(C)c5ccc(Cl)cc45)cc3n2)c2cc(Cl)ccc21` ?
a: 75.1% (inactive)

q: What does the record list as growth for `Cc1ccc(C(=O)Nc2cccc(C(F)(F)F)c2)cc1Nc1nc(-c2cnccn2)nc2c1cnn2C` ?
a: 83.7% (inactive)
